Source: PubChem BioAssay AID1159580

- test details: chemical genetic growth profiling, strain panel (AID 1159580);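 also: tested at 20 µM; growth read once vehicle control cultures reached saturation at 30 °C; 1 = growth at the plate median or of vehicle wells; lower values mean less growth of the strain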
- condition details: S. cerevisiae deletion strains, growth OD, locus YML016C, strain PPZ1, hits give low values
In all, about 5,500 compounds went through this assay and about 2,000 (36%) were called active. Roughly 18% stayed inconclusive and do not appear here. Some of the results follow.
Listed here: items and their measured normalized growth.

{"columns": ["molecule", "normalized growth"],
 "data": [
  ["O=C(O)CN1C(=O)c2cccc3cccc(c23)C1=O", "1 (inactive)"],
  ["CC1(C)OC(=O)C=CC2(C)C1CC(O)C1(C)C2CCC2(C)C(c3ccoc3)OC(=O)C3OC321 (stereo unspecified)", "1.01 (inactive)"],
  ["CCN(CC)C(=O)c1cccc(C)c1", "1.01 (inactive)"],
  ["CCCCN1CCCCC1C(=O)Nc1c(C)cccc1C (stereo unspecified)", "1.02 (inactive)"],
  ["O=S1OCC2C(CO1)C1(Cl)C(Cl)=C(Cl)C2(Cl)C1(Cl)Cl (stereo unspecified)", "0.991 (inactive)"],
  ["CCCCN(CCCC)CCCOC(=O)c1ccc(N)cc1", "0.993 (inactive)"],
  ["C[C@@H]1C(=O)OC2[C@H](O)C34[C@@H]5OC(=O)[C@@]3(O[C@@H]3OC(=O)[C@H](O)[C@@]34[C@H](C(C)(C)C)[C@H]5O)[C@]21O (stereo partly specified)", "1.01 (inactive)"],
  ["CCN(CC)CCOC(=O)c1ccc(N)cc1", "1.01 (inactive)"],
  ["CCCCCCOc1ccccc1C(N)=O", "0.822 (active)"],
  ["CCCCOC(=O)c1ccccc1C(=O)OCc1ccccc1", "0.996 (inactive)"],
  ["Nc1ccc(N=Nc2ccccc2)c(N)n1", "0.987 (inactive)"]
]}
